Test system: HCC-2998 colon
measurement_protocol: NCI-60 one-dose screen, 48 h (100 = growth as untreated, 0 = no growth, -100 = all killed)
test_context: 10 µM unless noted
About 83,000 compounds went through this panel and 20% of them were active in at least one assay; those are over-represented in the sample as a whole. The source made the active and inactive calls. Rule for the calls: active = growth percent below 10; inactive = the rest.
assay_endpoint: growth

Examples with their reported growth follow.
molecule	growth
CN(C)CCOc1ccc(C(=O)C2[C@H](c3ccc(Cl)cc3)[C@@H](c3ccccc3)NC23C(=O)Nc2ccc(Cl)cc23)cc1 (stereo partly drawn)	-91.8% (active)
O=C(CSc1nnc(-c2ccc(-c3nc4ccccc4[nH]3)cc2)o1)Nc1ccc(Br)cc1	71.2% (inactive)

Report growth for CC1CCc2c(sc3nc(SCC(=O)c4cccc([N+](=O)[O-])c4)n(-c4ccccc4)c(=O)c23)C1 (stereo not drawn) please.
105% (inactive)

###

Test system: SR leukemia
measurement_protocol: NCI-60 one-dose screen, 48 h (100 = growth as untreated, 0 = no growth, -100 = all killed)
test_context: 10 µM unless noted
The panel holds about 83,000 compounds, 20% with a hit somewhere; the sample as a whole holds those more often.
assay_endpoint: growth (%)
Supply the numeric figure in %, leaving out any unit text.

molecule	result_unit	growth
O=C(Nc1ccc(S(=O)(=O)N2CCCCC2)cc1)C(Cl)Cl	%	95.7
COc1cc(/C=N/NC(=O)c2ccc(OCc3nc4ccc(C)cc4[nH]3)cc2)cc(OC)c1OC	%	0.64
CCN1CCN(Cc2ccc(C(=O)Nc3cccc(Nc4ccc5c(OC)cccc5n4)c3)cc2C(F)(F)F)CC1	%	-35.1
COc1ccc2[nH]c(=O)cc(-n3ncc(C(=O)/C=C/c4cc(OC)c(OC)c(OC)c4)c3C)c2c1	%	-11.8
COc1sc(/C=N/NC(=O)c2[nH]c3ccc(Br)cc3c2-c2ccccc2)cc1Cl	%	11.1
COc1c(B(O)O)cccc1-c1nc2ccc3cn[nH]c3c2c2c1CCCC2	%	71.8

Report growth for Cc1ccc(N=Nc2c(N)nn3c(-c4cc5ccccc5oc4=O)ccnc23)cc1 please.
75.7

Report growth for CN(C)c1nc(NCCNS(=O)(=O)c2ccc(C(=O)/C=C/c3ccc(Cl)cc3)cc2)nc(N2CCOCC2)n1 please.
-12.8

Report growth for COc1c(F)ccc(C(=O)Nc2ccc3nc(NC(=O)C4CCCN(S(=O)(=O)c5ccc(C(C)(C)C)cc5)C4)sc3c2)c1F (centres undefined) please.
17.3

Report growth for O=[N+]([O-])c1cccc(-c2nnc3c(/C=C/c4ccc(F)cc4)nc4ccccc4n23)c1 please.
85.2

###

Test system: SNB-19 CNS
measurement_protocol: NCI-60 one-dose screen, 48 h (100 = growth as untreated, 0 = no growth, -100 = all killed)
test_context: 10 µM unless noted
Experimental: Growth inhibition of the SNB-19 human tumor cell line is measured as a screen for anti-cancer activity. Cells are grown in 96 well plates and exposed to the test compound for 48 hours. Compounds are tested at a single concentration, which is 10^-5 M for most compounds. The reported endpoint is percent growth (GI% or GIPRCNT), where numbers from 0 - 100% represent growth inhibition, and numbers from -100% - 0 represent cell death. For example, a value of 40 represents 60% growth inhibition. […]
This is part of a sample that, as a whole, favours compounds with a hit. Of some 83,000 tested, about 20% had one in any assay.
This section presents compounds with their documented growth values.
Supply the numeric figure in %, leaving out any unit text.

Examples with their reported growth follow.
compound	growth / %
COC(=O)c1cc(C(=O)C(F)(F)F)n2c3ccccc3c3ccccc3c12	67.8
COc1cc(/C=C/C(=O)c2cnn(-c3cc(=O)[nH]c4ccc(Br)cc34)c2C)cc(OC)c1OC	-2.48
COc1ccc2oc(=O)c(-c3csc(N/N=C(\C)c4cc(OC)c(OC)c(OC)c4)n3)cc2c1	86.6
COc1ccc(C2=NN(C(=O)[C@H]3[C@@H](c4ccco4)c4sc(=O)[nH]c4S[C@@H]3C)C(c3ccc4ccccc4c3)C2)cc1 (stereo not given in full)	39.8

// next entry
Report growth for O=C(Cc1c(-c2ccccc2[N+](=O)[O-])n(-c2ncnc3c2c(-c2ccccc2)c(-c2ccccc2)n3Cc2ccccc2)[nH]c1=O)c1ccc(Cl)c(Cl)c1 please.
16.8

###

System: SF-295 CNS
measurement_protocol: NCI-60 one-dose screen, 48 h (100 = growth as untreated, 0 = no growth, -100 = all killed)
test_context: 10 µM unless noted
Compounds without any hit were thinned out: in the full panel of roughly 83,000, 20% have a hit.
This section presents compounds with their documented growth values.
Supply the numeric figure in %, leaving out any unit text.

Examples with their reported growth follow.
record_smiles	growth, %
O=C1Nc2cc(-c3ccc(NS(=O)(=O)c4ccc(C(F)(F)F)cc4)cc3)ccc2/C1=C/c1ccc[nH]1	17.6
Cc1ccc(S(=O)(=O)N(CCn2ccnc2[N+](=O)[O-])CCn2ccnc2[N+](=O)[O-])cc1	109
COc1cc2cc(C(=O)N3C[C@@H](CCl)c4c3cc(OC(=O)N(CCC(=O)N3CCN(C)CC3)C3CCCCC3)c3ccccc43)[nH]c2c(OC)c1OC	-68.3

Report growth for COc1cc(/C=C/C(=O)c2cnn(-c3cc(=O)[nH]c4ccc(Cl)cc34)c2C)cc(OC)c1OC please.
-71.5

###

This section presents molecules with their documented growth values.
Test system: UO-31 renal
measurement_protocol: NCI-60 one-dose screen, 48 h (100 = growth as untreated, 0 = no growth, -100 = all killed)
test_context: 10 µM unless noted
The panel holds about 83,000 compounds, 20% with a hit somewhere; the sample as a whole holds those more often. Active and inactive are the calls of the source. How the source made its calls: active means growth percent below 10; inactive means the rest.

Examples with their reported growth follow.
record_smiles	growth
CC[C@@]12CC(C(=O)OC)=C3Nc4cc5c(cc4[C@@]34CCN(C[C@H]3O[C@H]31)[C@@H]24)[C@@H]1[C@H](O5)[C@@H](O)[C@@]2(CC)CC(C(=O)OC)=C3Nc4cc(O)ccc4[C@@]34CCN1[C@@H]24	-66.2% (active)
O=C(CSc1nnc(-c2ccc(-c3nc4ccccc4[nH]3)cc2)o1)Nc1ccc(Br)cc1	63.2% (inactive)
CC1=C(C)C(=O)C(NCCN2CCOCC2)=C(Br)C1=O	44.7% (inactive)
Clc1ccc(Nc2nnc(-c3c[nH]c4ccccc34)o2)cc1	49.7% (inactive)
COc1cc(/C=C/C(=O)c2cnn(-c3cc(=O)[nH]c4ccc(C)cc34)c2C)cc(OC)c1OC	-45.8% (active)

Report growth for COc1ccc(OC)c(Cn2cc(C#N)c(N)c2C(=O)c2ccc(Br)cc2)c1 please.
34.6% (inactive)

Report growth for COc1cc(/C=C/C(=O)c2cnn(-c3cc(=O)[nH]c4ccc(Cl)cc34)c2C)cc(OC)c1OC please.
-72.6% (active)

Report growth for COc1cc2cc(C(=O)N3C[C@@H](CCl)c4c3cc(OC(=O)N(C)CCSSCCN3CCOCC3)c3ccccc43)[nH]c2c(OC)c1OC please.
-28.2% (active)

Report growth for COc1ccc(N=Nc2c(N)nn3c(-c4ccc5c(c4)C=S=C5)ccnc23)cc1 please.
16.4% (inactive)

Report growth for COc1ccc2[nH]c(=O)c(CSc3ccccc3Nc3nccc(-c4ccc5c(c4)OCO5)n3)cc2c1 please.
75.8% (inactive)

###

Test system: SNB-19 CNS
measurement_protocol: NCI-60 one-dose screen, 48 h (100 = growth as untreated, 0 = no growth, -100 = all killed)
test_context: 10 µM unless noted
This is part of a sample that, as a whole, favours compounds with a hit. Of some 83,000 tested, about 20% had one in any assay.
assay_endpoint: growth (%)
Supply the numeric figure in %, leaving out any unit text.

compound	assay_endpoint	reported_result
COc1ccc(N=Nc2c(N)nn3c(-c4cc5ccccc5oc4=O)ccnc23)cc1	growth	19.8
O=C(N/N=C/c1ccc(Cl)cc1)c1ccc(OCc2nc3ccc(Cl)cc3[nH]2)cc1	growth	35
COc1ccc(C(=O)C[n+]2cccc3c4ccccc4ccc32)cc1	growth	31.4

Report growth for CN(CCSSCCN1CCOCC1)C(=O)Oc1cc2c(c3ccccc13)[C@H](CCl)CN2C(=O)c1cc2cc(OCCCN3CCC3)ccc2[nH]1 please.
-100

###

This section presents compounds with their documented growth values.
System: OVCAR-4 ovarian
measurement_protocol: NCI-60 one-dose screen, 48 h (100 = growth as untreated, 0 = no growth, -100 = all killed)
test_context: 10 µM unless noted
Procedure: Growth inhibition of the OVCAR-4 human tumor cell line is measured as a screen for anti-cancer activity. Cells are grown in 96 well plates and exposed to the test compound for 48 hours. Compounds are tested at a single concentration, which is 10^-5 M for most compounds. The reported endpoint is percent growth (GI% or GIPRCNT), where numbers from 0 - 100% represent growth inhibition, and numbers from -100% - 0 represent cell death. For example, a value of 40 represents 60% growth inhibition. […]
The panel holds about 83,000 compounds, 20% with a hit somewhere; the sample as a whole holds those more often.
Supply the numeric figure in %, leaving out any unit text.

Examples with their reported growth follow.
compound	growth, %
CCCN(CCC)S(=O)(=O)c1ccc(C(=O)O)cc1.CCCN(CCC)S(=O)(=O)c1ccc(C(=O)O)cc1.[Cl][Pt+2][Cl].[NH2-].[NH2-]	35.4
Clc1ccc(CNc2nc(SCCN3CCOCC3)nc3c2cnn3CC(Cl)c2ccc(Br)cc2)cc1 (stereo unspecified)	44.6
CN(C(=O)CN1C(=O)/C(=C/c2ccco2)SC1=S)C1CCS(=O)(=O)C1 (stereo unspecified)	106

Report growth for Fc1cccc(CNc2nc(SCCN3CCOCC3)nc3c2cnn3CC(Cl)c2ccc(Br)cc2)c1 (stereo unspecified) please.
27.3

Report growth for O=C(NC(=S)N1CCN(c2ncnc3c2cnn3-c2ccccc2)CC1)c1ccc(F)cc1 please.
45.8

Report growth for CC(C)(C)c1cc(-c2cc(-c3ccccc3)[nH]c(=O)c2C#N)cc(C(C)(C)C)c1 please.
5.22

Report growth for Cc1cc(=O)oc2cc(OCC(O)CNN3C(=O)c4cccc5c(N6CCN(C)CC6)ccc(c45)C3=O)ccc12 (stereo unspecified) please.
99.1

Report growth for Nc1nc2cc(-c3ccc4ncnc(NCc5ccccc5)c4c3)ccc2o1 please.
-75.2
